# systemTested: binding partner of C5A (XPA23)
# methodDescription: Biacore, K-off
Exercise: state measured fold difference in affinity vs original for each of the binders provided.

- binder: "C5A (XPA23) VH Y101R (antibody, V domains shown) VH: EVQLLESGGGLVQPGGSLRLSCAASGFTFSKYFMFWVRQAPGKGLEWVSVISPSGGMTRYADSVKGRFTISRDNSKNTLYLQMNSLRAEDTAVYYCARVGRGGNSDYWGQGTLVTVSS VL: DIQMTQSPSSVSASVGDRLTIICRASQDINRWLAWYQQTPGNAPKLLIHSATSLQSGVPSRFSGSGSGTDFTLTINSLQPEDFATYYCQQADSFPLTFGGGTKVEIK"
  fold difference in affinity vs original: "0.85 fold"
- binder: "C5A (XPA23) VH Y101N (antibody, V domains shown) VH: EVQLLESGGGLVQPGGSLRLSCAASGFTFSKYFMFWVRQAPGKGLEWVSVISPSGGMTRYADSVKGRFTISRDNSKNTLYLQMNSLRAEDTAVYYCARVGNGGNSDYWGQGTLVTVSS VL: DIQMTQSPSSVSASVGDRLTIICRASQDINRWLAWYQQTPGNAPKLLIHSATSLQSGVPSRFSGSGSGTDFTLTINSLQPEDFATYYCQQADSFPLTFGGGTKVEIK"
  fold difference in affinity vs original: "0.06 fold"

Switching to the query record.
### Prompt Recall and state the measured fold difference in affinity vs original for C5A (XPA23) VH G55S (antibody, V domains shown) VH: EVQLLESGGGLVQPGGSLRLSCAASGFTFSKYFMFWVRQAPGKGLEWVSVISPSSGMTRYADSVKGRFTISRDNSKNTLYLQMNSLRAEDTAVYYCARVGYGGNSDYWGQGTLVTVSS VL: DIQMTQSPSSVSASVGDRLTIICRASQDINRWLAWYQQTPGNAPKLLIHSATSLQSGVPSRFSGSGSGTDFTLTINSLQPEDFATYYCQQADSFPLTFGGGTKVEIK .
### Response 1.02 fold
